IC50: recorded values
# target.desc: BuChE (EC 3.1.1.8) from horse serum (Equus caballus)
# Construct: purchased Sigma-Aldrich C0663; host or cells: equine serum
# Sequence (P81908 whole entry): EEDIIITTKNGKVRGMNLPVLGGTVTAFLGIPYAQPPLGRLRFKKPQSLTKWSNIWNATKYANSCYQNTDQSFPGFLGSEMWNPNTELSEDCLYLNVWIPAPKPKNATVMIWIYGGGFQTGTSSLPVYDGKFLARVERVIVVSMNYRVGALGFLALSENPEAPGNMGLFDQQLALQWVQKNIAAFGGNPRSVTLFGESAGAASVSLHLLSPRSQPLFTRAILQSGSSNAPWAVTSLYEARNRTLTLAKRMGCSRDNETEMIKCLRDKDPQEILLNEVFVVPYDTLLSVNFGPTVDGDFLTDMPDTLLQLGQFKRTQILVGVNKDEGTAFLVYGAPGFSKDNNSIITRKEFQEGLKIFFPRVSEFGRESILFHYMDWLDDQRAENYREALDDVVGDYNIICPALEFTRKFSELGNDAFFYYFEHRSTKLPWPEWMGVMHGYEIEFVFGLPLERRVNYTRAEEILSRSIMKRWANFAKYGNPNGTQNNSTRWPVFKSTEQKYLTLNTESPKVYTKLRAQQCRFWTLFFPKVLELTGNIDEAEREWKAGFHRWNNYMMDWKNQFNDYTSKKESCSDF
# procedure.text: biochemical
# Assay type: biochemical
# details: BuChE from horse serum; mean ± SEM of three experiments
Numeric answer only, unit nM assumed.

{"columns": ["smiles.record", "IC50 (nM)"],
 "data": [
  ["O=C(/C=C/c1ccc(C(F)(F)F)cc1)NCCCCCCNc1c2c(nc3ccccc13)CCCC2", 16.4],
  ["O=C(/C=C/c1ccc(Cl)c([N+](=O)[O-])c1)NCCCCCCNc1c2c(nc3ccccc13)CCCC2", 11.1],
  ["O=C(C=Cc1ccccc1)NCCCCCCNc1c2c(nc3ccccc13)CCCC2", 34.4],
  ["O=C(/C=C/c1ccccc1[N+](=O)[O-])NCCCCCCNc1c2c(nc3ccccc13)CCCC2", 3.6]
]}

Moving on to another compound below.
Look up IC50: COc1cc(/C=C/C(=O)NCCCCCCNc2c3c(nc4ccccc24)CCCC3)ccc1OCc1ccc(C)cc1
58.4
